measurement_type: melting point

>>> recorded_measurement("Oc1ccc(Cc2cccc(F)c2)cc1O [Compound 2d]")
"66 to 68 °C"

# input Form field: reported melting point of O=C(c1ccc(O)c(O)c1)c1ccccc1F [Compound 1c, 2-fluoro-3′,4′-dihydroxyl benzophenone]
# output 149 to 150 °C

# input # melting point lookup, item COc1ccc(C(=O)c2ccccc2I)cc1OC [Compound 4a, 2-iodo-3′,4′-dimethoxyl benzophenone]
# output 143 to 145 °C

# input Bench note: what melting point did O=C(c1ccc(O)c(O)c1)c1ccccc1I [Compound 4c, 2-iodo-3′,4′-dihydroxyl benzophenone] show?
# output 186 to 188 °C

# input Please look up its melting point: COc1ccc(C(=O)c2ccccc2F)cc1OC [Compound 1a, 2-fluoro-3′,4′-dimethoxyl benzophenone]
# output 77 to 79 °C

# input Endpoint output: melting point of Oc1ccc(Cc2ccccc2F)cc1O [Compound 1d] . Value?
# output 91 to 92 °C

# input Requested field: melting point. Item: Oc1ccc(Cc2ccc(F)cc2)cc1O [Compound 3d]
# output 59 to 61 °C

# input Sample COc1ccc(C(=O)c2ccc(F)cc2)cc1OC [Compound 3a, 4-fluoro-3′,4′-dimethoxyl benzophenone] — what was its melting point?
# output 101 to 103 °C

----------
# tgt: protein tyrosine kinase (PTK)
# protocol_description: in vitro PTK inhibitory activity by ELISA (brain cytoplasmic tyrosine kinase extract, PGT substrate)
# protocol_conditions: genistein as positive control, determined in triplicate
Some molecules, each annotated with its measured pIC50.
Just the number, please; pIC50 means minus log10 of the concentration in mol/L.

Reference set (2 entries):
>>> recorded_measurement("Oc1cc(Br)c(Cc2ccccc2)cc1O [Compound 11d]")
5.20
>>> recorded_measurement("O=C(c1cccc(Cl)c1)c1ccc(O)c(O)c1")
4.75

Query molecule follows.
# input Data request, read-out pIC50, for O=c1c(-c2ccc(O)cc2)coc2cc(O)cc(O)c12 [Genistein, genistein, reference compound]
# output 4.87

----------
measurement_type: melting point

Please review the following examples before continuing.
>>> recorded_measurement("O=C(c1ccc(F)cc1)c1ccc(O)c(O)c1 [Compound 3c, 4-fluoro-3′,4′-dihydroxyl benzophenone]")
"155 to 157 °C"
>>> recorded_measurement("O=C(c1cccc(F)c1)c1ccc(O)c(O)c1 [Compound 2c, 3-fluoro-3′,4′-dihydroxyl benzophenone]")
"104 to 106 °C"
>>> recorded_measurement("COc1ccc(C(=O)c2cccc(F)c2)cc1OC [Compound 2a, 3-fluoro-3′,4′-dimethoxyl benzophenone]")
"103 to 105 °C"

Turning to the following molecule.
# input Record request: melting point value, item Oc1ccc(Cc2ccccc2I)cc1O [Compound 4d, 2-iodo-3′,4′-dihydroxyl diphenylmethane]
# output 130 to 132 °C

----------
# tgt: protein tyrosine kinase (PTK)
# protocol_description: in vitro PTK inhibitory activity by ELISA (brain cytoplasmic tyrosine kinase extract, PGT substrate)
# protocol_conditions: genistein as positive control, determined in triplicate
measurement_type: pIC50
# pIC50 is unitless: minus log10 of the molar concentration; print number only

Take a look at these entries with their results.
>>> recorded_measurement("O=C(c1ccc(O)c(O)c1)c1c(Cl)c(O)c(O)c(O)c1Cl")
5.53
>>> recorded_measurement("Oc1ccc(Cc2cccc(Cl)c2)cc1O")
4.89
>>> recorded_measurement("Oc1cc(Br)c(Cc2ccc(O)c(Br)c2)cc1O")
5.20
>>> recorded_measurement("Oc1ccc(Cc2c(Cl)c(O)c(O)c(O)c2Cl)cc1O")
5.40
>>> recorded_measurement("Oc1ccc(Cc2ccc(Cl)cc2)cc1O [Compound 10d]")
5.16

Proceeding to the next compound to report its pIC50.
# input What measured pIC50 goes with O=C(c1ccccc1)c1cc(O)c(O)cc1Br [Compound 11c] ?
# output 4.80
